System: MDCK
Assay: MDCK BBB Assay
Type: in vitro ADME
Settings: MDCK BBB assay
Readout Kind: % Permeable (%)
Give the value in % but do not write % after it.

Compound	Readout Kind	Observed Measurement
Clc1ccc(-n2c(-c3ccccc3Cl)nc3c(N4CCN(c5ccc(OCc6ccccc6)cc5)CC4)ncnc32)cc1 [Compound 65]	% Permeable	8
O=C(C1COc2ccccc2O1)N1CCN(c2ncnc3c2nc(-c2ccccc2Cl)n3-c2ccc(Cl)cc2)CC1 (centres unmarked) [Compound 61]	% Permeable	0
CCCCC(=O)NC1CCN(c2ncnc3c2nc(-c2ccncc2Cl)n3-c2ccc(Cl)cc2)CC1 [Compound 91]	% Permeable	41
CCCCC(=O)N1CCN(c2ncnc3c2nc(-c2ccccc2Cl)n3-c2ccc(Cl)cc2)CC1 [Compound 103]	% Permeable	0
COc1ccc(N2CCN(c3ncnc4c3nc(-c3ccccc3Cl)n4-c3ccc(Cl)cc3)CC2)cc1 [Compound 72]	% Permeable	0
O=C(Nc1ccc(F)c(F)c1)N1CCN(c2ncnc3c2nc(-c2ccccc2Cl)n3-c2ccc(Cl)cc2)CC1 [Compound 42]	% Permeable	0

Please turn your attention to the following entry.
Req: Record CCCCC(=O)NC1(c2ccccc2)CCN(c2ncnc3c2nc(-c2ccncc2Cl)n3-c2ccc(Cl)cc2)CC1 [Compound 93] : what is its % Permeable with MDCK?
Resp: 0

###

Measured % Permeable by item
System: MDCK
Assay: MDCK BBB Assay
Assay type: in vitro ADME
Settings: MDCK BBB assay
Give the value in % but do not write % after it.

Structure Notation	U	Observed Measurement
CCCCC(=O)NC1CCN(c2ncnc3c2nc(-c2ccncc2C)n3-c2ccc(Cl)cc2)CC1	%	38
N=C(NC1CCN(c2ncnc3c2nc(-c2ccccc2Cl)n3-c2ccc(Cl)cc2)CC1)c1ccc(F)cc1	%	0
Clc1ccc(-n2c(-c3ccccc3Cl)nc3c(N4CCN(c5ccccn5)CC4)ncnc32)cc1	%	0
O=C(NC1CCCC1)N1CCN(c2ncnc3c2nc(-c2ccccc2Cl)n3-c2ccc(Cl)cc2)CC1	%	3

Please turn your attention to the following entry.
Req: So what does the record say about % Permeable for O=S(=O)(C1CC1)N1CCN(c2ncnc3c2nc(-c2ccccc2Cl)n3-c2ccc(Cl)cc2)CC1 ?
Resp: 4
